Tested on: Puccinia triticina
assay notes: Wheat brown rust (PUCCRT) disease control on wheat seedlings
Type: in vivo
measurement context: 72 h, High volume application, 100 ppm, 3 Day Curative, read-out: PUCCRT disease control rating, 3DC
endpoint name: pest or weed control at 100 ppm

mol=COc1ccnc(C(=O)N[C@@H](C)C(=O)O[C@H](C)[C@H](C)c2c(C)cccc2C)c1O endpoint_name="pest or weed control at 100 ppm" observed_measurement="> 80%"
mol=COc1ccnc(C(=O)N[C@@H](C)C(=O)O[C@H](C)[C@H](C)c2ccc(F)cc2C(F)(F)F)c1O endpoint_name="pest or weed control at 100 ppm" observed_measurement="< 0%"
mol=COc1ccnc(C(=O)N[C@@H](C)C(=O)O[C@H](C)[C@@H](C)c2ccccc2C)c1O endpoint_name="pest or weed control at 100 ppm" observed_measurement="< 80%"
mol=COc1ccc([C@@H](C)[C@@H](C)OC(=O)CNC(=O)c2nccc(OC)c2O)c(C)c1 endpoint_name="pest or weed control at 100 ppm" observed_measurement="< 80%"
mol=COc1ccc([C@@H](C)[C@@H](C)OC(=O)[C@H](C)NC(=O)c2nccc(OC)c2O)c(C)c1 endpoint_name="pest or weed control at 100 ppm" observed_measurement="< 80%"
mol=COc1ccnc(C(=O)N[C@H](C(=O)O[C@H](C)[C@@H](C)c2ccc(F)cc2C)C(C)C)c1O endpoint_name="pest or weed control at 100 ppm" observed_measurement="< 80%"
mol=COc1ccnc(C(=O)N[C@H](C(=O)O[C@@H](C)[C@H](C)c2ccccc2C)C(C)C)c1O endpoint_name="pest or weed control at 100 ppm" observed_measurement="< 80%"
mol=COc1ccnc(C(=O)N[C@@H](C)C(=O)O[C@@H](C)[C@@H](C)c2ccccc2)c1OC(C)=O endpoint_name="pest or weed control at 100 ppm" observed_measurement="> 80%"
mol=COc1ccc([C@H](C)[C@H](C)OC(=O)[C@@H](NC(=O)c2nccc(OC)c2O)C(C)C)c(C)c1 endpoint_name="pest or weed control at 100 ppm" observed_measurement="> 80%"

----------
Tested on: Phakopsora pachyrhizi
assay notes: Asian soybean rust (PHAKPA) disease control on soybean seedlings
Type: in vivo
measurement context: High volume application at 25 ppm, 3 day curative
endpoint name: PHAKPA 3DC (3 Day Curative) disease control

molecule="COc1ccc([C@H](C)[C@H](C)OC(=O)[C@H](C)NC(=O)c2nccc(OC)c2OC(=O)C(C)C)c(C)c1 [Example 230]" observed_measurement="D (≤0)"
molecule="COc1ccc([C@H](C)[C@H](C)OC(=O)[C@H](C)NC(=O)c2nccc(OC)c2OC(=O)C(C)C)c(C)c1 [Example 204]" observed_measurement="A (>80)"
molecule="COc1ccc([C@H](C)[C@H](C)OC(=O)CNC(=O)c2nccc(OC)c2OC(=O)C(C)C)c(C)c1 [Example 224]" observed_measurement="D (≤0)"
molecule="COc1ccnc(C(=O)NCC(=O)O[C@@H](C)[C@@H](C)c2ccc(F)cc2C)c1OC(=O)C(C)C [Example 196]" observed_measurement="B (≤80)"
molecule=COc1ccc([C@@H](C)[C@@H](C)OC(=O)[C@H](C)NC(=O)c2nccc(OC)c2OC(C)=O)c(C)c1 observed_measurement="B (≤80)"
molecule="COc1ccnc(C(=O)N[C@H](C(=O)O[C@@H](C)[C@@H](C)c2ccc(F)cc2C)C(C)C)c1OC(=O)C(C)C [Example 206]" observed_measurement="D (≤0)"
molecule="COc1ccnc(C(=O)N[C@H](C(=O)O[C@@H](C)[C@@H](C)c2ccc(F)cc2C)C(C)C)c1OC(=O)C(C)C [Example 209]" observed_measurement="A (>80)"
molecule="COc1ccnc(C(=O)N[C@H](C(=O)O[C@@H](C)[C@@H](C)c2ccc(F)cc2C)C(C)C)c1OC(=O)C(C)C [Example 205]" observed_measurement="B (≤80)"
molecule="COc1ccnc(C(=O)N[C@@H](C)C(=O)O[C@@H](C)[C@@H](C)c2ccc(F)cc2)c1OC(=O)C(C)C [Example 229]" observed_measurement="D (≤0)"
molecule="COc1ccnc(C(=O)NCC(=O)O[C@@H](C)[C@@H](C)c2ccc(F)cc2C)c1OC(=O)C(C)C [Example 221]" observed_measurement="D (≤0)"
molecule=COc1ccnc(C(=O)N[C@@H](C)C(=O)O[C@@H](C)[C@H](C)c2ccccc2C)c1OC(=O)C(C)C observed_measurement="D (≤0)"
molecule="COc1ccnc(C(=O)N[C@@H](C)C(=O)O[C@@H](C)[C@@H](C)c2ccc(F)cc2)c1OC(=O)C(C)C [Example 203]" observed_measurement="B (≤80)"
molecule="COc1ccc([C@H](C)[C@H](C)OC(=O)CNC(=O)c2nccc(OC)c2OC(=O)C(C)C)c(C)c1 [Example 200]" observed_measurement="B (≤80)"
molecule="COc1ccnc(C(=O)N[C@H](C(=O)O[C@@H](C)[C@@H](C)c2ccc(F)cc2C)C(C)C)c1OC(=O)C(C)C [Example 208]" observed_measurement="D (≤0)"
molecule="COc1ccnc(C(=O)N[C@H](C(=O)O[C@@H](C)[C@@H](C)c2ccc(F)cc2C)C(C)C)c1OC(=O)C(C)C [Example 207]" observed_measurement="D (≤0)"

----------
Tested on: Phakopsora pachyrhizi
assay notes: Asian soybean rust (PHAKPA) disease control on soybean seedlings
Format: in vivo
measurement context: Phakopsora pachyrhizi, 72 h, High volume application at 25 ppm, 3 day curative, read-out: PHAKPA 3DC (3 Day Curative) disease control
endpoint name: pest or weed control at 25 ppm

molecule=COc1ccnc(C(=O)N[C@@H](C)C(=O)O[C@@H](C)[C@@H](C)c2ccc(C)s2)c1OC(C)=O observed_measurement="< 80%"
molecule=COc1ccnc(C(=O)N[C@@H](C)C(=O)O[C@H](C)[C@H](C)c2c(C)cc(F)cc2C)c1OC(C)=O observed_measurement="> 80%"
molecule=COc1cc(F)ccc1[C@@H](C)[C@@H](C)OC(=O)[C@H](C)NC(=O)c1nccc(OC)c1OC(C)=O observed_measurement="< 80%"
molecule=COc1ccnc(C(=O)N[C@@H](C)C(=O)O[C@@H](C)[C@@H](C)c2c(C)cc(F)cc2C)c1OC(=O)C(C)C observed_measurement="> 80%"
molecule=COc1ccnc(C(=O)N[C@H](C(=O)O[C@H](C)[C@@H](C)c2ccccc2C)C(C)C)c1OC(=O)C(C)C observed_measurement="< 80%"
molecule=COc1ccnc(C(=O)N[C@@H](C)C(=O)O[C@H](C)[C@H](C)c2ccccc2C)c1OC(C)=O observed_measurement="< 80%"
molecule=COc1ccnc2c(=O)n([C@@H](C)C(=O)O[C@@H](C)[C@@H](C)c3ccccc3)c(=O)oc12 observed_measurement="< 80%"
molecule=COc1ccnc(C(=O)N[C@@H](C)C(=O)O[C@H](C)[C@H](C)c2ccc(F)cc2)c1OCOC(C)=O observed_measurement="< 0%"
molecule=COc1ccnc(C(=O)N[C@H](C(=O)O[C@H](C)[C@H](C)c2ccc(F)cc2)C(C)C)c1OC(=O)C(C)C observed_measurement="< 0%"
molecule=COc1ccnc(C(=O)N[C@@H](C)C(=O)O[C@@H](C)[C@@H](C)c2ccc(C)cc2C)c1OC(=O)C(C)C observed_measurement="> 80%"
molecule=COc1ccnc(C(=O)N[C@@H](C)C(=O)O[C@@H](C)[C@H](C)c2ccccc2C)c1OC(=O)C(C)C observed_measurement="< 0%"
molecule=COc1cc[n+]([O-])c(C(=O)N[C@@H](C)C(=O)O[C@@H](C)[C@@H](C)c2ccccc2)c1O observed_measurement="< 80%"
molecule=COc1ccnc(C(=O)N[C@@H](C)C(=O)O[C@H](C)[C@H](C)c2ccccc2C(F)(F)F)c1OC(C)=O observed_measurement="< 80%"
molecule=COc1cc(F)ccc1[C@@H](C)[C@@H](C)OC(=O)[C@H](C)NC(=O)c1c(O)c(OC)cc[n+]1[O-] observed_measurement="< 80%"
molecule=COc1ccnc(C(=O)N[C@@H](C)C(=O)O[C@@H](C)[C@@H](C)c2ccc(F)cc2C(F)(F)F)c1OC(C)=O observed_measurement="> 80%"
molecule=COc1ccnc(C(=S)N[C@@H](C)C(=O)O[C@@H](C)[C@@H](C)c2ccc(F)cc2C(F)(F)F)c1OC(C)=O observed_measurement="> 80%"
molecule=COc1ccnc(C(=O)N[C@@H](C)C(=O)O[C@H](C)[C@H](C)C2CCCC2)c1OC(=O)C(C)C observed_measurement="< 0%"
molecule="COc1ccnc(C(=O)N[C@@H](C)C(=O)OC(C)C(C)c2c(C)cc(F)cc2C)c1OC(C)=O (stereo partly shown)" observed_measurement="> 80%"
molecule=COc1ccnc(C(=S)N[C@@H](C)C(=O)O[C@@H](C)[C@@H](C)c2ccccc2C(F)(F)F)c1OC(C)=O observed_measurement="< 80%"
molecule=COc1ccnc(C(=O)N[C@@H](C)C(=O)O[C@@H](C)[C@@H](C)C2CCCC2)c1OC(=O)C(C)C observed_measurement="< 0%"
molecule=COc1ccnc(C(=O)N[C@@H](C)C(=O)O[C@H](C)[C@H](C)c2ccc(F)cc2)c1OC(=O)C(C)C observed_measurement="< 80%"
molecule=COc1ccnc(C(=O)N[C@@H](C)C(=O)O[C@H](C)[C@H](C)c2ccc(F)cc2C(F)(F)F)c1OC(=O)C(C)C observed_measurement="< 80%"
molecule=COc1ccnc(C(=O)N[C@@H](C)C(=O)O[C@H](C)[C@H](C)c2ccc(F)cc2)c1OC(C)=O observed_measurement="< 80%"
molecule=COc1ccnc(C(=O)N[C@@H](C)C(=O)O[C@@H](C)[C@H](C)c2ccc(F)cc2C)c1OC(=O)C(C)C observed_measurement="< 80%"
molecule=COc1ccnc(C(=O)N[C@@H](C)C(=O)O[C@@H](C)[C@@H](C)c2ccccc2C)c1OC(C)=O observed_measurement="> 80%"
molecule=COc1ccnc(C(=O)N[C@H](C)C(=O)O[C@@H](C)[C@H](C)c2ccc(F)cc2C)c1OC(=O)C(C)C observed_measurement="< 80%"
molecule=COc1ccnc(C(=O)N[C@H](C)C(=O)O[C@@H](C)[C@H](C)c2ccccc2C)c1OC(C)=O observed_measurement="< 0%"
molecule=COc1ccc([C@@H](C)[C@@H](C)OC(=O)[C@@H](NC(=O)c2nccc(OC)c2OC(=O)C(C)C)C(C)C)c(C)c1 observed_measurement="< 0%"
